Would you mind telling me the reported solubility thermodynamic at 24 h of each entry?
assay.info: Thermodynamic solubility of the compound at pH 6.5 after 24 hrs by shake flask method using LC-MS analysis
Format: physicochemical
condition.label: buffer, read-out: Therm_solubility

OC[C@H]1O[C@H](OCCc2cn(-c3ccncc3)nn2)[C@@H](O)[C@@H](O)[C@@H]1O : > 3000 µg/mL
OC[C@H]1O[C@H](n2cc(-c3cccnc3)nn2)[C@@H](O)[C@@H](O)[C@@H]1O : 1380 µg/mL

Need solubility thermodynamic at 24 h for each of these molecules.
1. Cc1ccc(-c2cn(C[C@H]3O[C@H](CO)[C@@H](O)[C@H](O)[C@@H]3O)nn2)cc1
2. COc1ccc(Cn2cc(CO[C@H]3O[C@H](CO)[C@@H](O)[C@H](O)[C@@H]3O)nn2)cc1
3. OC[C@H]1O[C@H](OCc2cn(C34CC5CC(CC(C5)C3)C4)nn2)[C@@H](O)[C@@H](O)[C@@H]1O

1: 1490 µg/mL; 2: > 3000 µg/mL; 3: > 3000 µg/mL

Need solubility thermodynamic at 24 h for each of these molecules.
1. O=C([O-])c1ccc(-n2cc(CO[C@H]3O[C@H](CO)[C@@H](O)[C@H](O)[C@@H]3O)nn2)cc1.[Na+]
2. COc1cccc(Cn2cc(CO[C@H]3O[C@H](CO)[C@@H](O)[C@H](O)[C@@H]3O)nn2)c1
3. OC[C@H]1O[C@H](Cn2cc(-c3ccccc3)nn2)[C@@H](O)[C@@H](O)[C@@H]1O
4. OC[C@H]1O[C@H](n2cc(-c3cccc(Cl)c3)nn2)[C@@H](O)[C@@H](O)[C@@H]1O
5. Cc1ccc(-c2cn([C@H]3O[C@H](CO)[C@@H](O)[C@H](O)[C@@H]3O)nn2)cc1
6. Nc1ccc(-n2cc(CO[C@H]3O[C@H](CO)[C@@H](O)[C@H](O)[C@@H]3O)nn2)cc1

["> 3000 µg/mL", "> 3000 µg/mL", "> 3000 µg/mL", "705 µg/mL", "445 µg/mL", "> 2000 µg/mL"]

Need solubility thermodynamic at 24 h for each of these molecules.
1. CCCCCCCO[C@H]1O[C@H](CO)[C@@H](O)[C@H](O)[C@@H]1O
2. O=[N+]([O-])c1ccc(-n2cc(CCO[C@H]3O[C@H](CO)[C@@H](O)[C@H](O)[C@@H]3O)nn2)cc1

["> 3000 µg/mL", "> 3000 µg/mL"]

* * *

subject.of.test: Type 1 fimbrin D-mannose specific adhesin (Escherichia coli K-12) (UniProt P08191)
Sequence (P08191 whole entry): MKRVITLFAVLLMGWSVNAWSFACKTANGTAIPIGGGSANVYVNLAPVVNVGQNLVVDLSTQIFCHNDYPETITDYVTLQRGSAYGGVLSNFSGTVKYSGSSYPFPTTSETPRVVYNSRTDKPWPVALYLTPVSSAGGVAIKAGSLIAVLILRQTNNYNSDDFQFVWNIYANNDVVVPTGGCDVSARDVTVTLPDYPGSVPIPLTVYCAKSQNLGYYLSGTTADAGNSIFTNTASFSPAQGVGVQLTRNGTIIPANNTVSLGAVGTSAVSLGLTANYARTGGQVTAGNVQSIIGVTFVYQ
assay.info: Ratio of compound IC50 to n-heptyl alpha-D-mannopyranoside IC50 for Escherichia coli recombinant C-terminal 6His-tagged FimH-CRD with a C-terminal thrombin cleavage site expressed in Escherichia coli HM125 assessed as inhibition of streptavidin-horseradish peroxidase conjugated TM-PAA polymer binding after 3 hrs by spectrophotometry
quantity: Ratio IC50
Answers are plain numbers.

O=[N+]([O-])c1ccc(-n2cc(CO[C@H]3O[C@H](CO)[C@@H](O)[C@H](O)[C@@H]3O)nn2)cc1 : 6.1
COc1cccc(Cn2cc(CCO[C@H]3O[C@H](CO)[C@@H](O)[C@H](O)[C@@H]3O)nn2)c1 : 3.5
O=C([O-])c1cccc(-n2cc(CO[C@H]3O[C@H](CO)[C@@H](O)[C@H](O)[C@@H]3O)nn2)c1.[Na+] : 4.5
COc1ccc(-n2cc(CO[C@H]3O[C@H](CO)[C@@H](O)[C@H](O)[C@@H]3O)nn2)cc1 : 2.5

Below: the item to evaluate.
Entry "OC[C@H]1O[C@H](Cn2cc(-c3ccc(C(F)(F)F)cc3)nn2)[C@@H](O)[C@@H](O)[C@@H]1O" , Ratio IC50 reported as 3

* * *

Would you mind telling me the reported solubility thermodynamic at 24 h of each entry?
assay.info: Thermodynamic solubility of the compound at pH 6.5 after 24 hrs by shake flask method using LC-MS analysis
Assay type: physicochemical
condition.label: buffer, read-out: Therm_solubility

O=C([O-])c1cccc(-n2cc(CO[C@H]3O[C@H](CO)[C@@H](O)[C@H](O)[C@@H]3O)nn2)c1.[Na+] : > 3000 µg/mL
OC[C@H]1O[C@H](Cn2cc(-c3cccnc3)nn2)[C@@H](O)[C@@H](O)[C@@H]1O : 1880 µg/mL

Need solubility thermodynamic at 24 h for each of these molecules.
1. COc1cccc(Cn2cc(CCO[C@H]3O[C@H](CO)[C@@H](O)[C@H](O)[C@@H]3O)nn2)c1
2. O=[N+]([O-])c1ccc(-n2cc(CO[C@H]3O[C@H](CO)[C@@H](O)[C@H](O)[C@@H]3O)nn2)cc1

["> 3000 µg/mL", "2600 µg/mL"]

* * *

Test system: Escherichia coli
assay.info: Ratio of compound IC50 to n-heptyl alpha-D-mannopyranoside IC50 for Escherichia coli […] FimH assessed as disaggregation of microorganism from guinea pig erythrocytes measured for 1400 secs by aggregometry
quantity: Ratio IC50
Numbers only.

See these solved cases before continuing.
OC[C@H]1O[C@H](n2cc(-c3ccc(C(F)(F)F)cc3)nn2)[C@@H](O)[C@@H](O)[C@@H]1O : 3.2
CCCCCCCO[C@H]1O[C@H](CO)[C@@H](O)[C@H](O)[C@@H]1O : 1
Cc1ccc(-c2cn([C@H]3O[C@H](CO)[C@@H](O)[C@H](O)[C@@H]3O)nn2)cc1 : 3.7
Nc1ccc(-n2cc(CO[C@H]3O[C@H](CO)[C@@H](O)[C@H](O)[C@@H]3O)nn2)cc1 : 3.9
OC[C@H]1O[C@H](OCCc2cn(-c3ccc(F)cc3)nn2)[C@@H](O)[C@@H](O)[C@@H]1O : 2.8

Below: the item to evaluate.
Entry "OC[C@H]1O[C@H](OCCc2cn(-c3ccncc3)nn2)[C@@H](O)[C@@H](O)[C@@H]1O" , Ratio IC50 reported as 3.6

* * *

subject.of.test: Type 1 fimbrin D-mannose specific adhesin (Escherichia coli K-12, UniProt P08191)
Sequence (P08191 whole entry): as above
assay.info: Antagonist activity at Escherichia coli recombinant C-terminal 6His-tagged FimH-CRD with a C-terminal thrombin cleavage site expressed in Escherichia coli HM125 assessed as inhibition of streptavidin-horseradish peroxidase conjugated TM-PAA polymer binding after 3 hrs by spectrophotometry
Entries whose IC50 is below 200 nM take criterion met; entries at or above 200 nM take criterion not met.

Illustrative cases are given below, each with its answer.
OC[C@H]1O[C@H](n2cc(-c3cccc(Cl)c3)nn2)[C@@H](O)[C@@H](O)[C@@H]1O : criterion not met
O=C([O-])c1cccc(-n2cc(CO[C@H]3O[C@H](CO)[C@@H](O)[C@H](O)[C@@H]3O)nn2)c1.[Na+] : criterion not met
OC[C@H]1O[C@H](OCc2cn(-c3ccncc3)nn2)[C@@H](O)[C@@H](O)[C@@H]1O : criterion met
O=[N+]([O-])c1ccc(-n2cc(CCO[C@H]3O[C@H](CO)[C@@H](O)[C@H](O)[C@@H]3O)nn2)cc1 : criterion met
Cc1ccc(-c2cn([C@H]3O[C@H](CO)[C@@H](O)[C@H](O)[C@@H]3O)nn2)cc1 : criterion not met
OC[C@H]1O[C@H](n2cc(-c3ccc(C(F)(F)F)cc3)nn2)[C@@H](O)[C@@H](O)[C@@H]1O : criterion met

// next entry
Bench note: check whether "O=C([O-])c1ccc(-n2cc(CO[C@H]3O[C@H](CO)[C@@H](O)[C@H](O)[C@@H]3O)nn2)cc1.[Na+]" shows IC50 below 200 nM
criterion not met

* * *

subject.of.test: Type 1 fimbrin D-mannose specific adhesin (Escherichia coli K-12) (UniProt P08191)
assay.info: Ratio of compound IC50 to n-heptyl alpha-D-mannopyranoside IC50 for Escherichia coli recombinant C-terminal 6His-tagged FimH-CRD with a C-terminal thrombin cleavage site expressed in Escherichia coli HM125 assessed as inhibition of streptavidin-horseradish peroxidase conjugated TM-PAA polymer binding after 3 hrs by spectrophotometry
Would you mind telling me the reported Ratio IC50 of each entry?
Give bare numbers.

See these solved cases before continuing.
CO[C@H]1O[C@H](CO)[C@@H](O)[C@H](O)[C@@H]1O : 29
OC[C@H]1O[C@H](OCCc2cn(-c3ccncc3)nn2)[C@@H](O)[C@@H](O)[C@@H]1O : 2.3
Cc1ccc(-c2cn([C@H]3O[C@H](CO)[C@@H](O)[C@H](O)[C@@H]3O)nn2)cc1 : 3.8
OC[C@H]1O[C@H](n2cc(-c3ccccc3)nn2)[C@@H](O)[C@@H](O)[C@@H]1O : 3.8

Need Ratio IC50 for each of these compounds.
1. OC[C@H]1O[C@H](OCCc2cn(-c3ccc(F)cc3)nn2)[C@@H](O)[C@@H](O)[C@@H]1O
2. OC[C@H]1O[C@H](OCc2cn(Cc3ccccc3)nn2)[C@@H](O)[C@@H](O)[C@@H]1O
3. COc1cccc(Cn2cc(CO[C@H]3O[C@H](CO)[C@@H](O)[C@H](O)[C@@H]3O)nn2)c1
4. OC[C@H]1O[C@H](n2cc(-c3cccnc3)nn2)[C@@H](O)[C@@H](O)[C@@H]1O
5. COc1ccc(Cn2cc(CO[C@H]3O[C@H](CO)[C@@H](O)[C@H](O)[C@@H]3O)nn2)cc1
6. OC[C@H]1O[C@H](OCc2cn(-c3cccc(F)c3)nn2)[C@@H](O)[C@@H](O)[C@@H]1O
7. OC[C@H]1O[C@H](n2cc(-c3ccc(C(F)(F)F)cc3)nn2)[C@@H](O)[C@@H](O)[C@@H]1O
8. OC[C@H]1O[C@H](Cn2cc(-c3ccccc3)nn2)[C@@H](O)[C@@H](O)[C@@H]1O

1. 3
2. 10.2
3. 6.9
4. 3.3
5. 7.8
6. 5.3
7. 2.2
8. 8.5

Need Ratio IC50 for each of these compounds.
1. O=C([O-])c1ccc(-n2cc(CO[C@H]3O[C@H](CO)[C@@H](O)[C@H](O)[C@@H]3O)nn2)cc1.[Na+]
2. OC[C@H]1O[C@H](Cn2cc(-c3cccnc3)nn2)[C@@H](O)[C@@H](O)[C@@H]1O
3. O=C([O-])c1cncc(-n2cc(CO[C@H]3O[C@H](CO)[C@@H](O)[C@H](O)[C@@H]3O)nn2)c1.[Na+]
4. O=[N+]([O-])c1ccc(-n2cc(CCO[C@H]3O[C@H](CO)[C@@H](O)[C@H](O)[C@@H]3O)nn2)cc1
5. OC[C@H]1O[C@H](n2cc(COc3ccccc3)nn2)[C@@H](O)[C@@H](O)[C@@H]1O

1. 3.2
2. 5.1
3. 2.6
4. 1.7
5. 7.5
